For each entry below, report its ALT value.
Species on record: Rattus norvegicus
Assay Overview: Open TG-GATES - Regimen: Single
Assay type: toxicity, organism-based, Sprague-Dawley
Design: regimen Single, gender Male, age 6 weeks
Particulars: in vivo, po, 1000 mg/kg, 6 h, tissue Plasma, route gavage, dose level High
Respond with the bare value in IU/L.

So what's the measured ALT for this one? CCOC(=O)CCC(=O)O[C@H]1[C@H](O[C@@H]2[C@@H](C)[C@H](O[C@H]3C[C@@](C)(OC)[C@@H](O)[C@H](C)O3)[C@@H](C)C(=O)O[C@H](CC)[C@@](C)(O)[C@H](O)[C@@H](C)C(=O)[C@H](C)C[C@@]2(C)O)O[C@H](C)C[C@@H]1N(C)C [ERYTHROMYCIN ETHYLSUCCINATE]
45.8

So what's the measured ALT for this one? CC(C)OC(=O)C(C)(C)Oc1ccc(C(=O)c2ccc(Cl)cc2)cc1 [FENOFIBRATE]
43.4

So what's the measured ALT for this one? COC1=CC(=O)C[C@@H](C)[C@]12Oc1c(Cl)c(OC)cc(OC)c1C2=O [GRISEOFULVIN]
34

So what's the measured ALT for this one? COc1ccc2[nH]c([S+]([O-])Cc3ncc(C)c(OC)c3C)nc2c1 (stereo not given) [OMEPRAZOLE]
27

So what's the measured ALT for this one? NC(N)=Nc1nc(CSCCC(N)=NS(N)(=O)=O)cs1 [FAMOTIDINE]
31.8

----------
For each entry below, report its Ht value.
Species: Rattus norvegicus
Assay Overview: Open TG-GATES - Regimen: Single
Format: toxicity, organism-based, Sprague-Dawley
Design: regimen Single, gender Male, age 6 weeks
Particulars: in vivo, po, 100 mg/kg, 3 h, tissue Blood, route gavage, dose level Low
Respond with the bare value in %.

So what's the measured Ht for this one? COc1ccc2[nH]c([S+]([O-])Cc3ncc(C)c(OC)c3C)nc2c1 (centres undefined)
37.6

So what's the measured Ht for this one? `NC(N)=Nc1nc(CSCCC(N)=NS(N)(=O)=O)cs1`
38.2

So what's the measured Ht for this one? CCOC(=O)CCC(=O)O[C@H]1[C@H](O[C@@H]2[C@@H](C)[C@H](O[C@H]3C[C@@](C)(OC)[C@@H](O)[C@H](C)O3)[C@@H](C)C(=O)O[C@H](CC)[C@@](C)(O)[C@H](O)[C@@H](C)C(=O)[C@H](C)C[C@@]2(C)O)O[C@H](C)C[C@@H]1N(C)C [ERYTHROMYCIN ETHYLSUCCINATE]
39.7

So what's the measured Ht for this one? `COC1=CC(=O)C[C@@H](C)[C@]12Oc1c(Cl)c(OC)cc(OC)c1C2=O`
37.9

----------
For each entry below, report its Ret value.
Species on record: Rattus norvegicus
Assay Overview: Open TG-GATES - Regimen: Daily Repeat
Type: toxicity, organism-based, Sprague-Dawley
Set-up: regimen Daily Repeat, gender Male, age 6 weeks
Particulars: in vivo, po, 1000 mg/kg, […], tissue Blood, route gavage, dose level High, time 14 day
Respond with the bare value in %.

So what's the measured Ret for this one? CC(C)OC(=O)C(C)(C)Oc1ccc(C(=O)c2ccc(Cl)cc2)cc1 [FENOFIBRATE]
5.1

So what's the measured Ret for this one? NC(N)=Nc1nc(CSCCC(N)=NS(N)(=O)=O)cs1 [FAMOTIDINE]
4.8

So what's the measured Ret for this one? CCOC(=O)CCC(=O)O[C@H]1[C@H](O[C@@H]2[C@@H](C)[C@H](O[C@H]3C[C@@](C)(OC)[C@@H](O)[C@H](C)O3)[C@@H](C)C(=O)O[C@H](CC)[C@@](C)(O)[C@H](O)[C@@H](C)C(=O)[C@H](C)C[C@@]2(C)O)O[C@H](C)C[C@@H]1N(C)C [ERYTHROMYCIN ETHYLSUCCINATE]
4.6

So what's the measured Ret for this one? COc1ccc2[nH]c([S+]([O-])Cc3ncc(C)c(OC)c3C)nc2c1 (stereo unspecified) [OMEPRAZOLE]
5

So what's the measured Ret for this one? CCOc1ccc(NC(=O)CC(C)O)cc1 (stereo unspecified) [BUCETIN]
10.4

So what's the measured Ret for this one? COC1=CC(=O)C[C@@H](C)[C@]12Oc1c(Cl)c(OC)cc(OC)c1C2=O [GRISEOFULVIN]
2.8

----------
Organism: Rattus norvegicus
Assay Overview: Open TG-GATES - Regimen: Single
Assay type: toxicity, organism-based, Sprague-Dawley
Design: regimen Single, gender Male, age 6 weeks
Particulars: in vivo, po, 30 mg/kg, 9 h, tissue Plasma, route gavage, dose level Middle
Metric Name: ALP (IU/L)
Respond with the bare value in IU/L.

So what's the measured ALP for this one? CN(C)CCCN1c2ccccc2CCc2ccc(Cl)cc21 [CLOMIPRAMINE]
1468.8

So what's the measured ALP for this one? CN(C)CCCN1c2ccccc2CCc2ccccc21 [IMIPRAMINE]
1205.4

So what's the measured ALP for this one? CC1=C(/C=C/C(C)=C/C=C/C(C)=C/CO)C(C)(C)CCC1 [RETINOL]
1640.4

So what's the measured ALP for this one? `CN(C)CCN(Cc1cccs1)c1ccccn1`
1582.8

----------
Species: Rattus norvegicus
Assay Overview: Open TG-GATES - Regimen: Daily Repeat
Format: toxicity, organism-based, Sprague-Dawley
Set-up: regimen Daily Repeat, gender Male, age 6 weeks
Particulars: in vivo, po, 0 mg/kg, […], tissue Blood, route gavage, dose level Control, time 14 day
Metric Name: PT (s)
Respond with the bare value in s.

So what's the measured PT for this one? CCOc1ccc(NC(=O)CC(C)O)cc1 (stereo unspecified)
13.8

So what's the measured PT for this one? CCCNC(=O)NS(=O)(=O)c1ccc(Cl)cc1 [CHLORPROPAMIDE]
15.2

So what's the measured PT for this one? `NNC(=O)c1ccncc1`
11.8

So what's the measured PT for this one? COc1ccc2[nH]c([S+]([O-])Cc3ncc(C)c(OC)c3C)nc2c1 (stereo unspecified)
12.3

So what's the measured PT for this one? `CC1=C(/C=C/C(C)=C/C=C/C(C)=C/CO)C(C)(C)CCC1`
16.1

So what's the measured PT for this one? `NC(N)=Nc1nc(CSCCC(N)=NS(N)(=O)=O)cs1`
12.3

So what's the measured PT for this one? `CN(C)CCN(Cc1cccs1)c1ccccn1`
16.7

So what's the measured PT for this one? `CN(C)CCCN1c2ccccc2CCc2ccccc21`
15.6

So what's the measured PT for this one? `CN1C(=O)CN=C(c2ccccc2)c2cc(Cl)ccc21`
12

So what's the measured PT for this one? `COC1=CC(=O)C[C@@H](C)[C@]12Oc1c(Cl)c(OC)cc(OC)c1C2=O`
12.4

So what's the measured PT for this one? CCOC(=O)CCC(=O)O[C@H]1[C@H](O[C@@H]2[C@@H](C)[C@H](O[C@H]3C[C@@](C)(OC)[C@@H](O)[C@H](C)O3)[C@@H](C)C(=O)O[C@H](CC)[C@@](C)(O)[C@H](O)[C@@H](C)C(=O)[C@H](C)C[C@@]2(C)O)O[C@H](C)C[C@@H]1N(C)C [ERYTHROMYCIN ETHYLSUCCINATE]
16.3

----------
Species on record: Rattus norvegicus
Assay Overview: Open TG-GATES - Regimen: Single
Format: toxicity, organism-based, Sprague-Dawley
Design: regimen Single, gender Male, age 6 weeks
Particulars: in vivo, po, 10 mg/kg, 3 h, tissue Plasma, route gavage, dose level Low
For each entry below, report its CRE value.
Respond with the bare value in mg/dL.

So what's the measured CRE for this one? CC(C)OC(=O)C(C)(C)Oc1ccc(C(=O)c2ccc(Cl)cc2)cc1 [FENOFIBRATE]
0.2

So what's the measured CRE for this one? `CN(C)CCN(Cc1cccs1)c1ccccn1`
0.2

So what's the measured CRE for this one? `CC1=C(/C=C/C(C)=C/C=C/C(C)=C/CO)C(C)(C)CCC1`
0.1

So what's the measured CRE for this one? `CN(C)CCCN1c2ccccc2CCc2ccc(Cl)cc21`
0.2

So what's the measured CRE for this one? `CN(C)CCCN1c2ccccc2CCc2ccccc21`
0.1

----------
Species on record: Rattus norvegicus
Assay Overview: Open TG-GATES - Regimen: Single
Assay type: toxicity, organism-based, Sprague-Dawley
Parameters: regimen Single, gender Male, age 6 weeks
Particulars: in vivo, po, 100 mg/kg, 6 h, tissue Blood, route gavage, dose level Low
Metric Name: Ht (%)
Respond with the bare value in %.

So what's the measured Ht for this one? CCOC(=O)CCC(=O)O[C@H]1[C@H](O[C@@H]2[C@@H](C)[C@H](O[C@H]3C[C@@](C)(OC)[C@@H](O)[C@H](C)O3)[C@@H](C)C(=O)O[C@H](CC)[C@@](C)(O)[C@H](O)[C@@H](C)C(=O)[C@H](C)C[C@@]2(C)O)O[C@H](C)C[C@@H]1N(C)C [ERYTHROMYCIN ETHYLSUCCINATE]
39.8

So what's the measured Ht for this one? COc1ccc2[nH]c([S+]([O-])Cc3ncc(C)c(OC)c3C)nc2c1 (centres undefined)
38.6

So what's the measured Ht for this one? `COC1=CC(=O)C[C@@H](C)[C@]12Oc1c(Cl)c(OC)cc(OC)c1C2=O`
38.8

So what's the measured Ht for this one? `NC(N)=Nc1nc(CSCCC(N)=NS(N)(=O)=O)cs1`
37.5

Hey, just so you know, these numbers are from ChEMBL document CHEMBL3885861.
